Hey, just so you know, these numbers are from the supplement of paper PMC10567573.

B1: NET1 (parent)
chain: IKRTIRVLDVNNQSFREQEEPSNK

# Variants of: B1
# test protocol: protein stability index of a GFP-peptide fusion (GPS, HEK-293T) (PSI 1-6); higher = more stable;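 note: lentivirally expressed fusions sorted by FACS into six bins by GFP to DsRed ratio, PSI derived from sequencing read proportions per bin multiplied by bin number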
# stated conditions: c terminus: a fixed tail appended
recorded endpoint: protein stability index
// response body must contain only the number

> print(dat)
   mutant.label        recorded.endpoint  observed.result
1          N11H  protein stability index             3.62
2           L8P  protein stability index             4.93
3           D9C  protein stability index             2.94

Pending variant:
## Input Which protein stability index value is on record for K24E ?
## Output 4.37
